biological target: Rhodopsin kinase GRK7 (Homo sapiens) (UniProt Q8WTQ7); conditions: at 0.1 µM;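 note: reported figures are mean percent inhibition of GRK7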
Sequence (Q8WTQ7 whole entry): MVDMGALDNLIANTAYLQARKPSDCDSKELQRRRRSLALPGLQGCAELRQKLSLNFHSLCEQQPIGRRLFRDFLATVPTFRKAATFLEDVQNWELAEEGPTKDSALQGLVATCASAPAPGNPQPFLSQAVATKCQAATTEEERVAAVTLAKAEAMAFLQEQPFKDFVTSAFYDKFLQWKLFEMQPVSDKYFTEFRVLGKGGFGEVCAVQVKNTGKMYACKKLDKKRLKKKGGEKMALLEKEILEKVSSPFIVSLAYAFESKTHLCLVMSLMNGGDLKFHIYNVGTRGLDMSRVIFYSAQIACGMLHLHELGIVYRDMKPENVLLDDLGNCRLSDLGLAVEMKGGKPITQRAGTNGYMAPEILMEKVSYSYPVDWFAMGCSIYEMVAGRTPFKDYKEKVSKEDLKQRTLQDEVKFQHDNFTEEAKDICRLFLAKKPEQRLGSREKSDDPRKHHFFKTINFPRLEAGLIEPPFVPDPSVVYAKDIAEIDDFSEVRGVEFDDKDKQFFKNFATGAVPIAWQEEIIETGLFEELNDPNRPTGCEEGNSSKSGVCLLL
Items are presented alongside their recorded inhibition.
Provide the reading as a plain figure in %.

{"columns": ["compound_smiles", "unit_info", "result_value"],
 "data": [
  ["O=C1Nc2ccccc2/C1=C/Nc1ccc(-n2cncn2)cc1", "%", 5.5],
  ["COc1cccc(-n2cnc3c(N/N=C/c4ccncc4)ncnc32)c1", "%", 1.71],
  ["c1ccc(Oc2ccc(Nc3ncc(-c4ccccc4)o3)cc2)cc1", "%", 2.37],
  ["CN(C)CCOc1ccc(-c2cc(-c3ccc4c(c3)CCC4=NO)c(-c3ccncc3)o2)cc1", "%", 2.18],
  ["CCc1cccc(CC)c1/C=C/c1cncc(C(=O)NC)c1", "%", 1.2]
]}

Entry O=C(Nc1n[nH]c2nc(-c3ccc(O)cc3)c(Br)cc12)C1CC1 , inhibition reported as 5.77

Entry CCc1nccc2c1nc(-c1nonc1N)n2CC , inhibition reported as -2.75

Entry C[C@@H](Oc1cc(-n2cnc3ccc(OCC4CCN(C)CC4)cc32)sc1C(N)=O)c1ccccc1Cl , inhibition reported as 10.8

* * *

biological target: Ephrin type-B receptor 2 (Homo sapiens); settings: at 1 µM
Description: GSK_PKIS: EPHB2 mean inhibition at 1 uM [Nanosyn]
measure: inhibition (%)
Provide the reading as a plain figure in %.

{"columns": ["compound_smiles", "unit_info", "inhibition"],
 "data": [
  ["COc1cc(Nc2ncc(-c3ccccc3)o2)cc(OC)c1OC", "%", 5.83]
]}

Entry COc1cc(Nc2ncc3c(C)nc(-c4cccc(Oc5ccccc5)c4)n3n2)cc(OC)c1OC , inhibition reported as 8.52

Entry COc1ccc(C2=C(N3CCc4ccccc43)C(=O)NC2=O)cc1 , inhibition reported as 11.3

Entry NC(=O)c1ccc(Oc2nccc(-c3c(-c4ccc(F)cc4)ncn3C3CCNCC3)n2)cc1 , inhibition reported as 4.72

Entry Fc1ccc(-c2ncn(CCCN3CCOCC3)c2-c2ccncc2)cc1 , inhibition reported as -5.28

Entry CN1CCN(CCCNc2nc3ccc(Oc4ccc(NC(=O)Nc5cc(C(F)(F)F)ccc5F)cc4)cc3[nH]2)CC1 , inhibition reported as 58.8

Entry COc1cccc(-n2cnc3c(N/N=C/c4ccncc4)ncnc32)c1 , inhibition reported as 16.2

* * *

system: Proto-oncogene tyrosine-protein kinase receptor Ret (Homo sapiens), P07949 [V804L]; settings: at 1 µM
Sequence (P07949 whole entry V804L): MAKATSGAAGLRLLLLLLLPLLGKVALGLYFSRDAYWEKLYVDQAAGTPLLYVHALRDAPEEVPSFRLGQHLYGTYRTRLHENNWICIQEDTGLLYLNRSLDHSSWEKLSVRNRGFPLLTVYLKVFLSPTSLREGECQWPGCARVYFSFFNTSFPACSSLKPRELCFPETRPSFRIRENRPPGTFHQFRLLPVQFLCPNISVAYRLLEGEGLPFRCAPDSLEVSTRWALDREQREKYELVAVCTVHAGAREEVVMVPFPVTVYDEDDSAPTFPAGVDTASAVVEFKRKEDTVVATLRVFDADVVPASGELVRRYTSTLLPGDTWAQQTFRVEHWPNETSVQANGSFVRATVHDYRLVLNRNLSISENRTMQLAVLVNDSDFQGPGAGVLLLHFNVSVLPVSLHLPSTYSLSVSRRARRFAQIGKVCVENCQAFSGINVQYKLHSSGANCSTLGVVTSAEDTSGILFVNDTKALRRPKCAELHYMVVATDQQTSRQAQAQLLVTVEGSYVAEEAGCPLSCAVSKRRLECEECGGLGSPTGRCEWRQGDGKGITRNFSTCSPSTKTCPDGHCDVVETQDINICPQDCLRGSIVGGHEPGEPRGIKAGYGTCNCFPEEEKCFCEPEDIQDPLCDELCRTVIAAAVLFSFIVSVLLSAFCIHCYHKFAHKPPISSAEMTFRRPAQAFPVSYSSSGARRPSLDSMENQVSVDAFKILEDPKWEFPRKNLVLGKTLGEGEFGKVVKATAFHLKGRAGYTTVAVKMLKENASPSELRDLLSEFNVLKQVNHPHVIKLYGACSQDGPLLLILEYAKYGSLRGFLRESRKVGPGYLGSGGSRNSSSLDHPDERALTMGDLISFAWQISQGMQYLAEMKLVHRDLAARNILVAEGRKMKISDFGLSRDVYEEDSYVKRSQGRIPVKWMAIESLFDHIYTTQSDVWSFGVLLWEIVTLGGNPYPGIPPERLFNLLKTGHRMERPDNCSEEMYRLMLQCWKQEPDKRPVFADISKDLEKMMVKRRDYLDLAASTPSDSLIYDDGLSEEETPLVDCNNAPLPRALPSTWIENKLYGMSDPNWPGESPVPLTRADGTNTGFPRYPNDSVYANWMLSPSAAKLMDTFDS
measure: inhibition (%)
Provide the reading as a plain figure in %.

Check out these entries, answers already filled in.
{"columns": ["compound_smiles", "inhibition (%)"],
 "data": [
  ["CN(C)c1ccc2c(c1)/C(=C/Nc1ccc(S(N)(=O)=O)cc1)C(=O)N2", 51.1],
  ["O=C(Nc1n[nH]c2cc(-c3cc(F)ccc3F)ccc12)C1CC1", 2.9],
  ["NC(=O)c1cc(-c2ccncc2)cc(-c2ccccc2)c1N", 6.36],
  ["COc1cc(C)c(N(C)C(=O)CN(C)C)cc1Nc1nc(Nc2cccc(F)c2C(N)=O)c2cc[nH]c2n1", 4.18],
  ["Fc1ccc(-c2nc3n(c2-c2ccncc2)CCS3)cc1", 12.6],
  ["c1ccc(-c2n[nH]cc2-c2ccnc(-c3ccc(OCCN4CCOCC4)cc3)c2)nc1", 4.32]
]}

As a next step, examine the molecule that follows.
Entry Fc1ccc(-c2ncn(CCCN3CCOCC3)c2-c2ccncc2)cc1 , inhibition reported as 0.11

* * *

target: Insulin receptor (Homo sapiens); conditions: at 1 µM;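 note: each figure is a mean inhibition value from the GSK PKIS screening panel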
Items are presented alongside their recorded inhibition.

Check out these entries, answers already filled in.
{"columns": ["compound", "tgt", "inhibition"],
 "data": [
  ["CN(C)CCCNc1nccc(-c2c(-c3ccc(F)cc3)nn3cc(C(F)(F)F)ccc23)n1", "Insulin receptor (Homo sapiens)", "-0.49%"],
  ["Cc1nnc(-c2ccc(C)c(-c3ccc(C(=O)NCc4ccc(Cl)cc4)cc3)c2)o1", "Insulin receptor (Homo sapiens)", "6.19%"],
  ["Fc1ccc(-c2nc3n(c2-c2ccncc2)CCS3)cc1", "Insulin receptor (Homo sapiens)", "5.39%"],
  ["COc1cc(N2CCN(C(C)C)CC2)ccc1Nc1nc(Nc2ccc(F)cc2C(=O)NC[C@@H](O)CO)c2cc[nH]c2n1", "Insulin receptor (Homo sapiens)", "116%"]
]}

Entry COc1cc(Nc2ncc3c(C)nc(-c4cccc(C(F)(F)F)c4)n3n2)cc(OC)c1OC , inhibition reported as 8.95%

Entry CCc1ccc(Oc2nccc(-c3c(-c4ccc(F)cc4)ncn3C3CCNCC3)n2)cc1 , inhibition reported as 3.85%

Entry O=C(Nc1n[nH]c2nc(-c3ccco3)ccc12)C1CC1 , inhibition reported as 0.45%

Entry CCN(CC)Cc1ccc(Nc2nccc(-c3cnn4ncccc34)n2)cc1 , inhibition reported as 73.2%

Entry Fc1ccc(-c2c(-c3ccncc3)nc3n2CCS3)cc1 , inhibition reported as 6.13%

Entry O=C(Nc1ccc(Oc2ccc3[nH]c(NC(=O)c4ccccc4)nc3c2)cc1)Nc1cc(C(F)(F)F)ccc1F , inhibition reported as 2.26%

Entry Fc1ccc(-c2ncn(C3CCNCC3)c2-c2ccnc(Oc3ccc(F)c(F)c3)n2)cc1 , inhibition reported as 0.24%

Entry O=C1Nc2ccccc2/C1=C/Nc1ccc(-n2cncn2)cc1 , inhibition reported as 14.8%

Entry NCc1ccc(-n2c(-c3nonc3N)nc3cnccc32)cc1 , inhibition reported as 8.17%

* * *

Items are presented alongside their recorded inhibition.
test system: Epidermal growth factor receptor (Homo sapiens), P00533 [L861Q]; conditions: at 1 µM
Sequence (P00533 whole entry L861Q): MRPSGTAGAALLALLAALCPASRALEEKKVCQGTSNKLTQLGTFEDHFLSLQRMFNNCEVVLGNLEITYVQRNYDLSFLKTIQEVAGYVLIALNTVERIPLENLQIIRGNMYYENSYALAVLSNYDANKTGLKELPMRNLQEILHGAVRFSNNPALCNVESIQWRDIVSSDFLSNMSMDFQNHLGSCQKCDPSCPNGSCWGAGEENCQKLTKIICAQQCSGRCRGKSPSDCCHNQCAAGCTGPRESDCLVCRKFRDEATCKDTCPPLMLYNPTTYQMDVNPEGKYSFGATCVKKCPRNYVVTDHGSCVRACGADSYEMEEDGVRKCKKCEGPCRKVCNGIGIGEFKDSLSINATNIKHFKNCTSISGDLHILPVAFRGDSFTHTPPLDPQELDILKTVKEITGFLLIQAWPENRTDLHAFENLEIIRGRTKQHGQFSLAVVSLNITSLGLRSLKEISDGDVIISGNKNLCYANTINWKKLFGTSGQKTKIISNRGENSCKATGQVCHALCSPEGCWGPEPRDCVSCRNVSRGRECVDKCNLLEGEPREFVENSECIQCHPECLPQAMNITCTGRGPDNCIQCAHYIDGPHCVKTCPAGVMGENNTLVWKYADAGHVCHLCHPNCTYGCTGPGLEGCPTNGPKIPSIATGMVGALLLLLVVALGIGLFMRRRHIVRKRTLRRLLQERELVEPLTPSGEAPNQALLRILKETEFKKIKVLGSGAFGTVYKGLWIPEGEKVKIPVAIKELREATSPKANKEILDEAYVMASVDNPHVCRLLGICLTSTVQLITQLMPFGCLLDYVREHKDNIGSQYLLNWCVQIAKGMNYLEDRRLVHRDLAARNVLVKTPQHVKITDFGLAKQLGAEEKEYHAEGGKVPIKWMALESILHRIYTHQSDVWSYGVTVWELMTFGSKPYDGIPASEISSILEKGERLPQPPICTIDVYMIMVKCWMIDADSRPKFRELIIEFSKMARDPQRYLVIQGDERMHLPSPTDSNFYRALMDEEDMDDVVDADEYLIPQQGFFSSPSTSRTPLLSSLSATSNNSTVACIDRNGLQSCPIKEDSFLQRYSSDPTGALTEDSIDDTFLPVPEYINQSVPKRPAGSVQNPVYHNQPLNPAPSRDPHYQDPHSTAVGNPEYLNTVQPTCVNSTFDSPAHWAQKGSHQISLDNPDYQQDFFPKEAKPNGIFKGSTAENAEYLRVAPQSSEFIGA

Check out these entries, answers already filled in.
{"columns": ["compound_smiles", "result_value"],
 "data": [
  ["CCc1cccc(CC)c1/C=C/c1cncc(C(=O)NC)c1", "2.46%"],
  ["COc1cc2ncn(-c3cc(OCCc4ccccc4)c(C(N)=O)s3)c2cc1OC", "0.3%"],
  ["COc1ccc2cc(-c3c(-c4ccncc4)nc(-c4ccc(S(C)(=O)=O)cc4C)n3C)ccc2c1", "10.6%"]
]}

Entry COC(=O)Nc1nc2ccc(Sc3ccc(NC(=O)Nc4cc(C(F)(F)F)ccc4F)cc3)cc2[nH]1 , inhibition reported as 0.54%

Entry CNC(=O)c1cncc(/C=C/c2c(C)cccc2C)c1 , inhibition reported as 8.46%

Entry COc1ccc2ncn(-c3cc(O[C@H](C)c4ccccc4Cl)c(C(N)=O)s3)c2c1 , inhibition reported as 1.91%

* * *

system: Tyrosine-protein kinase ABL1 (Homo sapiens), P00519 [Y253F]; details: at 1 µM
Items are presented alongside their recorded inhibition.
Provide the reading as a plain figure in %.

Check out these entries, answers already filled in.
{"columns": ["compound_smiles", "measure", "unit_info", "result_value"],
 "data": [
  ["CNC(=O)c1cncc(/C=C/c2c(C)cccc2C)c1", "inhibition", "%", 70.3],
  ["Cc1ccc(C(=O)NC(C)C)cc1-c1ccc(C(=O)NCC2CC2)cc1", "inhibition", "%", -0.96]
]}

Entry COc1ccc2ncn(-c3cc(O[C@H](C)c4ccccc4Cl)c(C(N)=O)s3)c2c1 , inhibition reported as 4.15

Entry CN(C)c1ccc2c(c1)/C(=C/Nc1ccc(S(N)(=O)=O)cc1)C(=O)N2 , inhibition reported as 18.7

Entry COc1cc2ncn(-c3cc(OCc4ccccc4C(F)(F)F)c(C(C)=O)s3)c2cc1OC , inhibition reported as 4.29

* * *

tested on: Tyrosine-protein kinase ABL1 (Homo sapiens), P00519 [Q252H]; details: at 1 µM
Items are presented alongside their recorded inhibition.
Kindly report the value followed by its unit.

Check out these entries, answers already filled in.
{"columns": ["compound", "inhibition"],
 "data": [
  ["CN(c1ccc(NC(=O)Nc2c(Cl)cccc2Cl)cc1)c1ccnc(Nc2cccc(CS(C)(=O)=O)c2)n1", "72.3%"],
  ["C#Cc1cccc(Nc2ncnc3ccc(OCCCCNCCS(C)(=O)=O)cc23)c1", "22.7%"]
]}

Entry O=C(Nc1n[nH]c2cc(-c3cc(F)ccc3F)ccc12)C1CC1 , inhibition reported as 35.5%

Entry COc1ccc2cc(-c3c(-c4ccncc4)nc(-c4ccc([S+](C)[O-])cc4C)n3C)ccc2c1 (stereo not given) , inhibition reported as 18%

Entry COc1cc2ncn(-c3cc(OCc4cccs4)c(C(N)=O)s3)c2cc1OC , inhibition reported as 46.3%

* * *

biological target: ALK tyrosine kinase receptor (Homo sapiens) (UniProt Q9UM73); details: at 0.1 µM
Sequence (Q9UM73 19-1620 limits assumed): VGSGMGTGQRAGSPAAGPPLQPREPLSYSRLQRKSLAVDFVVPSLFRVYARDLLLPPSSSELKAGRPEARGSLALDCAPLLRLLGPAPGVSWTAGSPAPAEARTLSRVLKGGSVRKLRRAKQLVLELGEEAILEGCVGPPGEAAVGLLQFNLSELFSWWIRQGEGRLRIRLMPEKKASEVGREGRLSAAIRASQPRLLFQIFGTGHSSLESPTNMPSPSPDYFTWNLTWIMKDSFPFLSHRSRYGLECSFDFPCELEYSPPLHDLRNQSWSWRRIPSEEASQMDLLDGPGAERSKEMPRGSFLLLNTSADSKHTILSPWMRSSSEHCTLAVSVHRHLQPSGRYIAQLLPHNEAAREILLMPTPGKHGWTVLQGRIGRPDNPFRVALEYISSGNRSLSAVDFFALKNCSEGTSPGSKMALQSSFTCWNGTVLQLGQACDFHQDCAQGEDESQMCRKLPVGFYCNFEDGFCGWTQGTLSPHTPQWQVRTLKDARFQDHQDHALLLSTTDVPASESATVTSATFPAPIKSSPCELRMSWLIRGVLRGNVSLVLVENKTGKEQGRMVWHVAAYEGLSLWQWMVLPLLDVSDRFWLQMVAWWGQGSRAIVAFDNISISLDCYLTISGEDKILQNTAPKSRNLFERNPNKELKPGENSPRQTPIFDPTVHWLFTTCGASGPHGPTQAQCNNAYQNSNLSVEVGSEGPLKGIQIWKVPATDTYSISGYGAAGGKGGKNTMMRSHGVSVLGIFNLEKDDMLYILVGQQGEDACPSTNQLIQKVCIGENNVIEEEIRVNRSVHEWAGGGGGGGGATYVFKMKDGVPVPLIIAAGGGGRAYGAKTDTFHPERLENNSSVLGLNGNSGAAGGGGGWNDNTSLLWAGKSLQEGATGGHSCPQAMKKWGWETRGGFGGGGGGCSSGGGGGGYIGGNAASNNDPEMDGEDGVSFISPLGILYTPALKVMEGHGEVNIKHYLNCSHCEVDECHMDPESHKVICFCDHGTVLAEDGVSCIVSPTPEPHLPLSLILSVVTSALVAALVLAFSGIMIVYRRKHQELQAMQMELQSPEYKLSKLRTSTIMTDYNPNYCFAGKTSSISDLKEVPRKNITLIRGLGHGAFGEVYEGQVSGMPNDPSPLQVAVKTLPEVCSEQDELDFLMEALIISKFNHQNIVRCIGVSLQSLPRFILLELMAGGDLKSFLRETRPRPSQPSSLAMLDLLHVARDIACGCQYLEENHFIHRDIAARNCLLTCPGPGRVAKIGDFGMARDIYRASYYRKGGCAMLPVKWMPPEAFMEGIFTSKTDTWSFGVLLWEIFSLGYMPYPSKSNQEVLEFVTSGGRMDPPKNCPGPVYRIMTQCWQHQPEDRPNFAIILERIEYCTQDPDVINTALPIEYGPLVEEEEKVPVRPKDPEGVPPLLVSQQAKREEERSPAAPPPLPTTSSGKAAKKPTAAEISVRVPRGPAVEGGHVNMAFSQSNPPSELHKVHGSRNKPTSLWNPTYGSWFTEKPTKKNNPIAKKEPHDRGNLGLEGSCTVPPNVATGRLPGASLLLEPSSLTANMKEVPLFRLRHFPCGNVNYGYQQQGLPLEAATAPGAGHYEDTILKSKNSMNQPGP
Description: GSK_PKIS: ALK mean inhibition at 0.1 uM [Nanosyn]
measure: inhibition

Check out these entries, answers already filled in.
{"columns": ["compound_smiles", "inhibition"],
 "data": [
  ["CS(=O)(=O)CCNCc1ccc(-c2ccc3ncnc(Nc4ccc(OCc5ccccc5)c(Br)c4)c3c2)o1", "-0.91%"],
  ["Fc1ccc(-c2ncn(C3CCNCC3)c2-c2ccnc(Oc3ccc4c(c3)OCO4)n2)cc1", "4.91%"],
  ["FC(F)(F)c1cccc(Nc2nccc(-c3cnn4nc(-c5ccccc5)ccc34)n2)c1", "1.89%"]
]}

Entry O=C(Nc1n[nH]c2nc(-c3ccco3)ccc12)C1CC1 , inhibition reported as 1.35%

Entry NS(=O)(=O)c1ccc(N/N=C2\C(=O)Nc3ccc(-c4cnco4)cc32)cc1 , inhibition reported as -3.07%
